# target-or-system: UniProt:P11387
# Sequence (P11387 whole entry): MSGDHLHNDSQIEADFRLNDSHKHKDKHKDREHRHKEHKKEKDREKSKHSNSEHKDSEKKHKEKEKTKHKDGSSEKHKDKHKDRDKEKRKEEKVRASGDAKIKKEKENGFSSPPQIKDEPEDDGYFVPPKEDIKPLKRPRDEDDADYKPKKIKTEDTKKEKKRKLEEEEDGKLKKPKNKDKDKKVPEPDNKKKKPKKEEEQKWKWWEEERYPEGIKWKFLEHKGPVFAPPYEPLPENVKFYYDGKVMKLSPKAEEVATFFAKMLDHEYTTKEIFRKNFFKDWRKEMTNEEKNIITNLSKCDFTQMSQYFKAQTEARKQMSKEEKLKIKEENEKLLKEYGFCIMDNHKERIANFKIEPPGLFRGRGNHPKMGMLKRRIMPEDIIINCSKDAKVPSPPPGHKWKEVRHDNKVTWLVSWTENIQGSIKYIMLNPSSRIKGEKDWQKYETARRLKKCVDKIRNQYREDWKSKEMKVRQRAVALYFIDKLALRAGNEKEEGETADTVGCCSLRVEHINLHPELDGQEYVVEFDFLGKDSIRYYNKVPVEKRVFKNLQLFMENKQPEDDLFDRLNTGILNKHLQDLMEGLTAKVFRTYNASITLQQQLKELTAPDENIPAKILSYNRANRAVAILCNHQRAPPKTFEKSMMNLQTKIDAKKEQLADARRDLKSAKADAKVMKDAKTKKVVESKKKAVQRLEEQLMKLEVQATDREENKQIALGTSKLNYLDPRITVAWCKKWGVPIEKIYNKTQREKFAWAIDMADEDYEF
# protocol-text: Inhibition of topoisomerase 1-mediated relaxation of supercoiled pBR322 DNA at 20 uM after 20 mins using ethidium bromide staining by electrophoresis relative to control
quantity-measured: inhibition (%)

CN(C)CC(=O)Nc1cc(C(=O)Nc2cc(C(=O)NCCn3nc4c5c(cccc53)C(=O)c3c(Cl)cccc3-4)n(C)c2)n(C)c1 = 31
Cn1cc(NC(=O)c2cc(NC(=O)OC(C)(C)C)cn2C)cc1C(=O)NCCn1nc2c3c(cccc31)C(=O)c1ccccc1-2 = 31
Cn1cc(NC(=O)c2cc(N)cn2C)cc1C(=O)NCCn1nc2c3c(cccc31)C(=O)c1c(Cl)cccc1-2 = 52

A = Cn1cc(NC(=O)c2cc(N)cn2C)cc1C(=O)NCCn1nc2c3c(cccc31)C(=O)c1ccccc1-2
B = Cn1cc(NC(=O)OC(C)(C)C)cc1C(=O)NCCn1nc2c3c(cccc31)C(=O)c1ccccc1-2
C = NCCn1nc2c3c(cccc31)C(=O)c1ccccc1-2
D = CN(C)CC(=O)Nc1cc(C(=O)NCCn2nc3c4c(cccc42)C(=O)c2ccccc2-3)n(C)c1
Challenge: Put these in order: smallest inhibition first, largest last. Rank the items, then write their labels in that order.
Response given: B, D, A, C
